Target: Replicase polyprotein 1ab (Severe acute respiratory syndrome coronavirus 2)
Experiment: Inhibition of recombinant SARS-COV2 main protease expressed in Escherichia coli Rosetta cells using DABCYL-KTSAVLQSGFRKME-EDANS as substrate pre-incubated for 60 mins followed by substarte addition measured at 30 min in presence of GSH by FRET-based assay
Measure: pIC50
// pIC50 is dimensionless: -log10 of concentration (M)

**Query** Provide value of pIC50 for this record tested with Replicase polyprotein 1ab (Severe acute respiratory syndrome coronavirus 2): CC1=C(CO)C(=O)O[C@@H]([C@@H](C)[C@H]2CC[C@H]3[C@@H]4C[C@H]5O[C@]56[C@@H](O)C=CC(=O)[C@]6(C)[C@H]4CC[C@]23C)C1 [WITHAFERIN A]
**Result** 6.20
